Data provenance: ChEMBL document CHEMBL1833916

log10(IC50): recorded values
molecular target: Voltage-gated inwardly rectifying potassium channel KCNH2 (Homo sapiens, UniProt Q12809); assay: Inhibition of human ERG by patch clamp assay
Sequence (Q12809 whole entry): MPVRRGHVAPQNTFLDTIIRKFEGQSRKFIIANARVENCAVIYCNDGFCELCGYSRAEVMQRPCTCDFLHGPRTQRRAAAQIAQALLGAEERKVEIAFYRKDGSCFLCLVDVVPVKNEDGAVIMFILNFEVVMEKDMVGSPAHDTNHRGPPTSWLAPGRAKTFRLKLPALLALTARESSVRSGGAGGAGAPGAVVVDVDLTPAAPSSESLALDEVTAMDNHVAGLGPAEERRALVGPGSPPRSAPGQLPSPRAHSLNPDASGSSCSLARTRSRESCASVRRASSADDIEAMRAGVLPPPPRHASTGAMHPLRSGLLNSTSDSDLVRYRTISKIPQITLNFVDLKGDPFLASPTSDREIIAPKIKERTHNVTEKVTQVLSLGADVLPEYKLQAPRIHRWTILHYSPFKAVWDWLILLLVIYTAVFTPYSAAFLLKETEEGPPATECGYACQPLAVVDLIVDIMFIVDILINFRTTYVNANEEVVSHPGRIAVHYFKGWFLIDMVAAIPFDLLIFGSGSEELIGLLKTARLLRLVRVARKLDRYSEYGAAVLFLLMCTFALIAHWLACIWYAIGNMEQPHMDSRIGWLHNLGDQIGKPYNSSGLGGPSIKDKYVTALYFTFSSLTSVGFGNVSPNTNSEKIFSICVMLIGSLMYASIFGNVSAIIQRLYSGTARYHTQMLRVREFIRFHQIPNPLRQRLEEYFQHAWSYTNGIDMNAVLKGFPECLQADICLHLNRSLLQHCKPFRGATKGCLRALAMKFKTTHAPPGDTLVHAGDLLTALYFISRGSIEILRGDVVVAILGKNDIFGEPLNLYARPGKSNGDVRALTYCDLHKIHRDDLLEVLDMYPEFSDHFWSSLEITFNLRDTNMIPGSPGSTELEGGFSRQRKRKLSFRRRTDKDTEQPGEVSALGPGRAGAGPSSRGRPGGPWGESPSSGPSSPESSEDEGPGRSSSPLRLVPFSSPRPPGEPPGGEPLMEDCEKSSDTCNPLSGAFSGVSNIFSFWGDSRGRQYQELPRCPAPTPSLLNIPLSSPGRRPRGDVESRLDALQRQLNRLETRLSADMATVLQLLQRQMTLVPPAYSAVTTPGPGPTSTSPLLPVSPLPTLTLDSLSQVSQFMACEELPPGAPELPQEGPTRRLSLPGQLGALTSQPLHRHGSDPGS
parameterMeasured: log10(IC50) (log10 of the value in nM)

• COC(=O)C1(CNC(=O)c2cc(OC)cc(OC)c2)CCN(Cc2ccccc2OC)CC1 = 3.28
• COC(=O)C1(CNC(=O)c2cc(Cl)cc(Cl)c2)CCN(Cc2cccc(OC)c2)CC1 = 2.56
• COC(=O)C1(CNC(=O)c2cc(OC)cc(OC)c2)CCN(Cc2cccc(OC)c2)CC1 = 2.49
• COC(=O)C1(CNC(=O)c2cc(OC)cc(OC)c2)CCN(Cc2cccc(C(F)(F)F)c2)CC1 = 3.45
• COC(=O)C1(CNC(=O)c2cc(Cl)cc(Cl)c2)CCN(Cc2ccccc2OC)CC1 = 2.20

----------
target: Voltage-dependent T-type calcium channel subunit alpha-1G (Homo sapiens); assay: Inhibition of T-type calcium channel alpha1G expressed in human HEK293 cells assessed as KCl-induced depolarization at 10 uM after 60 mins by FDSS6000 assay; type: cell-based
Response key: class 1 means inhibition >= 60%; class 0 means inhibition < 60%.

• N#CC1(CNC(=O)c2cc(Cl)cc(Cl)c2)CCN(CCc2ccccc2)CC1 = class 1
• COc1cc(OC)cc(C(=O)NCC2(C#N)CCN(Cc3ccc(C(F)(F)F)cc3)CC2)c1 = class 0
• COC(=O)C1(CNC(=O)c2cc(Cl)cc(Cl)c2)CCN(Cc2ccc(C(F)(F)F)cc2)CC1 = class 0
• COC(=O)C1(CNC(=O)c2cc(Cl)cc(Cl)c2)CCN(CCc2ccccc2)CC1 = class 1
• COC(=O)C1(CNC(=O)c2cc(Cl)cc(Cl)c2)CCN(Cc2cccc(OC)c2)CC1 = class 1
• COc1ccc(CN2CCC(C#N)(CNC(=O)c3cc(Cl)cc(Cl)c3)CC2)cc1 = class 0
• CC1(C)Oc2ccccc2C=C1CN1CCC(C#N)(CNC(=O)c2cc(Cl)cc(Cl)c2)CC1 = class 0
• COC(=O)C1(CNC(=O)c2cc(OC)cc(OC)c2)CCN(CC2=Cc3ccccc3OC2(C)C)CC1 = class 0
• COc1ccccc1CN1CCC(C#N)(CNC(=O)c2cc(CC(C)C)n(-c3ccccc3)n2)CC1 = class 0
• COc1ccc(CN2CCC(C#N)(CNC(=O)c3cc(OC)cc(OC)c3)CC2)cc1 = class 0
• COc1cc(OC)cc(C(=O)NCC2(C#N)CCN(CCc3ccccc3)CC2)c1 = class 1
• CC(C)Cc1cc(C(=O)NCC2(C#N)CCN(CCc3ccccc3)CC2)nn1-c1ccccc1 = class 1
• COC(=O)C1(CNC(=O)c2cc(Cl)cc(Cl)c2)CCN(Cc2ccc(OC)cc2)CC1 = class 1

----------
molecular target: Voltage-dependent T-type calcium channel subunit alpha-1G (Homo sapiens, UniProt O43497); assay: Inhibition of T-type calcium channel alpha1G expressed in human HEK293 cells assessed as KCl-induced depolarization after 60 mins by FDSS6000 assay
Sequence (O43497 whole entry): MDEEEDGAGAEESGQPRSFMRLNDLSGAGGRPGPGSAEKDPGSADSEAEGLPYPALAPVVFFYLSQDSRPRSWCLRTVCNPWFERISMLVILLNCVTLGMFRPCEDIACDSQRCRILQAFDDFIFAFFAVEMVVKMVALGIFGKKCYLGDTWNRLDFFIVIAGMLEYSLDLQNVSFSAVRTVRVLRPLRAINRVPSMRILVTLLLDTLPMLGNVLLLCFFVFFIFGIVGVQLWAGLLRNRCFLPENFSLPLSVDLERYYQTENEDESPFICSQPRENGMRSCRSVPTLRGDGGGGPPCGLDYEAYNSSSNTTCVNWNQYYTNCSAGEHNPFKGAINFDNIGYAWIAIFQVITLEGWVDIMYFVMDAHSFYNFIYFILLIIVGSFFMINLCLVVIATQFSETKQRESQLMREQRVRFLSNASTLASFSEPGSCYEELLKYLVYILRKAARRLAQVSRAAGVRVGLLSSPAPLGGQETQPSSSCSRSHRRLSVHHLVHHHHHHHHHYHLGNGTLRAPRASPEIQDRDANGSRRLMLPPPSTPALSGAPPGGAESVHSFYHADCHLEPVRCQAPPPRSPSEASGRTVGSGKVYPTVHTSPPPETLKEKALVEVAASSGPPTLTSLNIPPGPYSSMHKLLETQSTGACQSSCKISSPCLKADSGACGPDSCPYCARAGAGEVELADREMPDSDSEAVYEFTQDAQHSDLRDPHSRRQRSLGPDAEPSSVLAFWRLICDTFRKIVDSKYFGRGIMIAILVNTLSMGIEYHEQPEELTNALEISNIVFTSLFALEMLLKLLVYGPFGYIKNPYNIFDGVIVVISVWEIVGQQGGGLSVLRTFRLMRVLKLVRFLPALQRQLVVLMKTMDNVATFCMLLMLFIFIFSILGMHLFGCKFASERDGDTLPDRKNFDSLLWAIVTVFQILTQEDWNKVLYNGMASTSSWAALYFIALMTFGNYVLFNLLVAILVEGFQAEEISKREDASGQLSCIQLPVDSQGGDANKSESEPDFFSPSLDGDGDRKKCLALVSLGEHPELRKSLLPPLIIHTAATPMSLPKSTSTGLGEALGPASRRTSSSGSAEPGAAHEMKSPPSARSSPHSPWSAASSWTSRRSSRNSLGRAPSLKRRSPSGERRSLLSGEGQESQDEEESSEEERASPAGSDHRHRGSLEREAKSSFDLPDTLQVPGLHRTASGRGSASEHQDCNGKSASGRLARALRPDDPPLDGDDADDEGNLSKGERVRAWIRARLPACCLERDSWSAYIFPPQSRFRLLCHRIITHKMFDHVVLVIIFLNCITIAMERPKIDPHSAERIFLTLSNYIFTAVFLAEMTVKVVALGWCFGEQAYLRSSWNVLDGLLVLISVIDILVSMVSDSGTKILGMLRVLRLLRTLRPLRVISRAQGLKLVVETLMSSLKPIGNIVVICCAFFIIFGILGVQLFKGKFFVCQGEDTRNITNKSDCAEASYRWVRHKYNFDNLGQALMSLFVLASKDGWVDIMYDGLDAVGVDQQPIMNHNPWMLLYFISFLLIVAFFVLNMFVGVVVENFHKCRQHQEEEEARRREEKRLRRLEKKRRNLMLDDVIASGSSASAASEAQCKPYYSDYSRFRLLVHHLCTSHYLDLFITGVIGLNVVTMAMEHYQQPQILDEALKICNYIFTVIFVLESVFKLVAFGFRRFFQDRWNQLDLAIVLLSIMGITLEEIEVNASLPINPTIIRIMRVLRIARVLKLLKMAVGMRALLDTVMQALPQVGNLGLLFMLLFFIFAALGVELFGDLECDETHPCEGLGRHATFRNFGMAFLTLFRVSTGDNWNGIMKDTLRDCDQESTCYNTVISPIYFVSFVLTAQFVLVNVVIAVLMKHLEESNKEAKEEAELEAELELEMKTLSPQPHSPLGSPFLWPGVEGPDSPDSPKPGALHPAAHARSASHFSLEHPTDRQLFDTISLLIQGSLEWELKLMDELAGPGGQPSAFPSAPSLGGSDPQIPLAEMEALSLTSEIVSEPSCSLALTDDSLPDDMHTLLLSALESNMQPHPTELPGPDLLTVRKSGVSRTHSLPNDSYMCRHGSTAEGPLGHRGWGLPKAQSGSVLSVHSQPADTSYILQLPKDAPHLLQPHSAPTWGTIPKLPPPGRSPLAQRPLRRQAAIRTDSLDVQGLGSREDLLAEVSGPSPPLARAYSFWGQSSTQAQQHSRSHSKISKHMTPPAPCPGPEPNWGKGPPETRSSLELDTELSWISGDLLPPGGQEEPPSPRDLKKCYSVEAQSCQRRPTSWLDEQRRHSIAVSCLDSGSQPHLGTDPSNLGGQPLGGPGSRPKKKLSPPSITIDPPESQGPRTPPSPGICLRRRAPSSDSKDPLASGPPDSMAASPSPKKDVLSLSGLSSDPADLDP
pIC50: −log10 of the molar value.
Measured pIC50, listed per entry.
parameterMeasured: pIC50

- COc1cc(OC)cc(C(=O)NCC2(C(=O)O)CCN(Cc3ccc(C(F)(F)F)cc3)CC2)c1.Cl: 5.14
- COC(=O)C1(CNC(=O)c2cc(OC)cc(OC)c2)CCN(Cc2ccc(C(F)(F)F)cc2)CC1: 5.38
